Experiment: Half life in H2O at 5 uM at 50 degC by liquid chromatography
Format: physicochemical
Conditions: water
measureName: half-life at 5 µM (h)

Sample records with half-life at 5 µM:
>>> measuredresult("Nc1ncnc2c1ncn2[C@@H]1O[C@@H]2CO[P@@](=O)(OCc3ccccc3[N+](=O)[O-])O[C@H]2[C@H]1O")
83
>>> measuredresult("Nc1ncnc2c1ncn2[C@@H]1O[C@@H]2CO[P@](=O)(OCc3ccc([N+](=O)[O-])cc3)O[C@H]2[C@H]1O")
240

P = Cc1ccc(CO[P@@]2(=O)OC[C@H]3O[C@@H](n4cnc5c(N)ncnc54)[C@H](O)[C@@H]3O2)cc1
Q = Nc1ncnc2c1ncn2[C@@H]1O[C@@H]2CO[P@@](=O)(OCc3ccc([N+](=O)[O-])cc3)O[C@H]2[C@H]1O
R = Nc1ncnc2c1ncn2[C@@H]1O[C@@H]2CO[P@](=O)(OCc3ccccc3[N+](=O)[O-])O[C@H]2[C@H]1O
S = Nc1ncnc2c1ncn2[C@@H]1O[C@@H]2COP(=O)(OCc3ccccc3)O[C@H]2[C@H]1O (single isomer, unassigned)
T = Nc1ncnc2c1ncn2[C@@H]1O[C@@H]2CO[P@@](=O)(OCc3ccccc3)O[C@H]2[C@H]1O
Order these by half-life at 5 µM, descending, and give the full ranking. List the labels, following the order given in the request.
R, Q, S, T, P
(R: 300 h, Q: 73 h, S: 2.2 h, T: 0.5 h, P: 0.1 h)

* * *

System: C6
Assay: Morphological alteration in rat C6 cells at 10^-3 M after 90 mins by microscopy
Type: ADME, cell-based
Conditions: c6, 1.5 h, 1000 µM
measureName: Activity (%)

Sample records with Activity:
>>> measuredresult("Nc1ncnc2c1ncn2[C@@H]1O[C@@H]2CO[P@@](=O)(OCc3ccccc3[N+](=O)[O-])O[C@H]2[C@H]1O")
90
>>> measuredresult("Nc1ncnc2c1ncn2[C@@H]1O[C@@H]2CO[P@](=O)(OCc3ccccc3[N+](=O)[O-])O[C@H]2[C@H]1O")
90
>>> measuredresult("CO[P@]1(=O)OC[C@H]2OC(n3cnc4c(N)ncnc43)[C@H](O)[C@@H]2O1 (single isomer, unassigned)")
0
>>> measuredresult("CO[P@@]1(=O)OC[C@H]2O[C@@H](n3cnc4c(N)ncnc43)[C@H](O)[C@@H]2O1")
0
>>> measuredresult("Nc1ncnc2c1ncn2[C@@H]1O[C@@H]2COP(=O)(OCc3ccccc3)O[C@H]2[C@H]1O (single isomer, unassigned)")
90
>>> measuredresult("Nc1ncnc2c1ncn2[C@@H]1O[C@@H]2CO[P@@](=O)(OCc3ccc([N+](=O)[O-])cc3)O[C@H]2[C@H]1O")
90

A = CCO[P@@]1(=O)OC[C@H]2O[C@@H](n3cnc4c(N)ncnc43)[C@H](O)[C@@H]2O1
B = Nc1ncnc2c1ncn2[C@@H]1O[C@@H]2CO[P@](=O)(OCc3ccc([N+](=O)[O-])cc3)O[C@H]2[C@H]1O
Please state the entry with greater Activity among A and B . Mark your selection by writing its label.
B

1 = Cc1ccc(CO[P@@]2(=O)OC[C@H]3O[C@@H](n4cnc5c(N)ncnc54)[C@H](O)[C@@H]3O2)cc1
2 = CCO[P@]1(=O)OC[C@H]2O[C@@H](n3cnc4c(N)ncnc43)[C@H](O)[C@@H]2O1
Could you determine which record has the numerically smaller Activity? Candidates: 1 and 2 Mark your selection by writing its label.
2
